# Test system: BDF1 mice, P388 leukemia ip, median survival T/C
# Test: NCI In Vivo Anticancer Drug Screen. Data for tumor model P388 Leukemia (intraperitoneal) in B6D2F1 (BDF1) mice
# Condition Set: endpoint: median survival time; dose: 400.0 mg/kg/injection; schedule: Q01DX009 (ip); vehicle: saline; higher = longer survival
Inconclusive results and toxic doses are left out.
Reported Metric: T/C

Suppose we examine the compound `CCOC(=O)CN(C)C#N` ; what T/C value has been reported?
95 % of control

Next up: `CCOC(=O)/C=C(\C)OCC`
95 % of control

Also check `CCOC(=O)c1cnc2c(OC)cccc2c1Cl`
113 % of control

Consider next the compound CC(CC#N)NC(=O)C1CCC(N)=N1 (stereo not drawn) in the same way.
103 % of control

Now the same for `S=c1cc(-c2cccs2)ss1`
91 % of control

Again, but for Cc1ccc(C2NC(=S)N3C(c4ccc(C)cc4)NC(=S)N23)cc1 (stereo not drawn)
112 % of control

Now give it for `COCC(N)=O` too.
113 % of control

Now the compound CC(C)N1c2c(nc(N)[nH]c2=O)NCC1CNc1ccc(C(=O)NC(CCC(=O)O)C(=O)O)cc1 (stereo not drawn)
110 % of control

What do you have for `O=C(Cn1cc(F)c(=O)[nH]c1=O)c1ccco1` ?
100 % of control

What about this compound? `COc1ccc(C(=O)c2cc(OC)c(OC)c(OC)c2)cc1OC`
122 % of control

What about this compound? `O=S(=O)(O)c1ccc(Br)cc1`
100 % of control

// next record `CS(=O)(=O)C(=Cc1ccccc1Cl)S(C)(=O)=O`
121 % of control

Queued: COc1ccc(C(C#N)CC(=O)c2ccc(OC)c(OCc3ccccc3)c2)cc1OC (stereo not drawn)
95 % of control

And CC(C=C1CCCCC1)C(=O)O (stereo not drawn) ?
118 % of control

Thanks! And OCC1CC=CCC1 (stereo not drawn) ?
119 % of control

Also need `CCOC(=O)CSC(=S)SCC(=O)OCC` , thanks.
100 % of control

Request: `CCOC(=O)CCN1CCCCC1`
107 % of control

Next compound up: Cc1nn(C2CC(O)C(O)C(CO)O2)c(=O)[nH]c1=O (stereo not drawn)
106 % of control

Provenance of the data: PubChem BioAssay AID328
